Where these numbers come from: patent US20110183861A1

SYSTEM: T1, A1 domain of vWF (UniProt P04275 1261-1468, limits assumed)
T1 construct: domain: A1 domain; also called vWF A1 domain
TEST_SUMMARY: BIAcore initial binding rate, vWF A1 domain on sensor-chip, stored sample
Would you kindly list % activity after 4 wks at 37° C. (initial binding rate against time zero) for each of these binders?
Numbers only, in %.

SEQ ID NO: 2 D105T (VHH) VHH: EVQLVESGGGLVQPGGSLRLSCAASGRTFSYNPMGWFRQAPGKGRELVAAISRTGGSTYYPDSVEGRFTISRDNAKRMVYLQMNSLRAEDTAVYYCAAAGVRAETGRVRTLPSEYTFWGQGTQVTVSS :: 101
SEQ ID NO: 2 D62A (VHH) VHH: EVQLVESGGGLVQPGGSLRLSCAASGRTFSYNPMGWFRQAPGKGRELVAAISRTGGSTYYPASVEGRFTISRDNAKRMVYLQMNSLRAEDTAVYYCAAAGVRAEDGRVRTLPSEYTFWGQGTQVTVSS :: 88.4
SEQ ID NO: 2 D105Q (VHH) VHH: EVQLVESGGGLVQPGGSLRLSCAASGRTFSYNPMGWFRQAPGKGRELVAAISRTGGSTYYPDSVEGRFTISRDNAKRMVYLQMNSLRAEDTAVYYCAAAGVRAEQGRVRTLPSEYTFWGQGTQVTVSS :: 97.6

Consider the record given below.
Recorded result, SEQ ID NO: 2 D105N (VHH) VHH: EVQLVESGGGLVQPGGSLRLSCAASGRTFSYNPMGWFRQAPGKGRELVAAISRTGGSTYYPDSVEGRFTISRDNAKRMVYLQMNSLRAEDTAVYYCAAAGVRAENGRVRTLPSEYTFWGQGTQVTVSS , % activity after 4 wks at 37° C. (initial binding rate against time zero): 29.5
